System: 885724-159-R-J1-PDC KRAS PDC multicell spheroid viability;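 note: spheroids exposed to agents for 7 days before readout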
Assay: Anticancer human tumor 885724-159-R-J1-PDC patient-derived pancreatic adenocarcinoma cell line growth inhibition [KRAS2]
Settings: second compound 0.1 µM; first compound 0.00316 µM; stronger effect = lower value
Source text: Multicellular complex tumor spheroid response to RAS pathway inhibitors in combination with a targeted agents in patient-derived cell lines with oncogenic KRAS variants from multiple cancer types A high-throughput screen of multi-cell type tumor spheroids was designed to identify active combinations of targeted small molecules and KRAS pathway inhibitors. […] Compounds. […] If the clinical Cmax for an agent had not been determined, the highest concentration tested was 10 microM. […]
Reported viability, T/C by item:
Provide the reading as a plain figure in %.

Sample records with viability, T/C:
- COMPOUND: "CCN1CCN(Cc2ccc(Nc3ncc(F)c(-c4cc(F)c5nc(C)n(C(C)C)c5c4)n3)nc2)CC1 + C=CC(=O)N1CCN(c2nc(=O)n(-c3c(C)ccnc3C(C)C)c3nc(-c4c(O)cccc4F)c(F)cc23)C(C)C1"
  UNIT_DESCRIPTOR: "%"
  viability, T/C: 116
- COMPOUND: "Cn1ncnc1[C@H]1c2n[nH]c(=O)c3cc(F)cc(c23)N[C@@H]1c1ccc(F)cc1 + C=CC(=O)N1CCN(c2nc(OCC3CCCN3C)nc3c2CCN(c2cccc4cccc(C)c24)C3)CC1CC#N"
  UNIT_DESCRIPTOR: "%"
  viability, T/C: 98.7
- COMPOUND: "CC(=O)Nc1cccc(-n2c(=O)n(C3CC3)c(=O)c3c(Nc4ccc(I)cc4F)n(C)c(=O)c(C)c32)c1 + CC1OCC2(CCN(c3cnc(Sc4ccnc(N)c4Cl)c(N)n3)CC2)C1N"
  UNIT_DESCRIPTOR: "%"
  viability, T/C: 33.3
- COMPOUND: "CN(C)C/C=C/C(=O)Nc1cc2c(Nc3ccc(F)c(Cl)c3)ncnc2cc1O[C@H]1CCOC1 + COc1cc2nc(C)nc(NC(C)c3cc(N)cc(C(F)(F)F)c3)c2cc1OC1CCOC1"
  UNIT_DESCRIPTOR: "%"
  viability, T/C: 97.1
- COMPOUND: "CN(C)C/C=C/C(=O)Nc1cc2c(Nc3ccc(F)c(Cl)c3)ncnc2cc1O[C@H]1CCOC1 + C=CC(=O)N1CCN(c2nc(=O)n(-c3c(C)ccnc3C(C)C)c3nc(-c4c(O)cccc4F)c(F)cc23)C(C)C1"
  UNIT_DESCRIPTOR: "%"
  viability, T/C: 106
- COMPOUND: "CC(=O)Nc1cccc(-n2c(=O)n(C3CC3)c(=O)c3c(Nc4ccc(I)cc4F)n(C)c(=O)c(C)c32)c1 + C=CC(=O)N1CCN(c2nc(OCC3CCCN3C)nc3c2CCN(c2cccc4cccc(C)c24)C3)CC1CC#N"
  UNIT_DESCRIPTOR: "%"
  viability, T/C: 37.3
- COMPOUND: "Cn1ncnc1[C@H]1c2n[nH]c(=O)c3cc(F)cc(c23)N[C@@H]1c1ccc(F)cc1 + COc1cc2nc(C)nc(NC(C)c3cc(N)cc(C(F)(F)F)c3)c2cc1OC1CCOC1"
  UNIT_DESCRIPTOR: "%"
  viability, T/C: 102

## Task viability, T/C of CCN1CCN(Cc2ccc(Nc3ncc(F)c(-c4cc(F)c5nc(C)n(C(C)C)c5c4)n3)nc2)CC1 + CC1OCC2(CCN(c3cnc(Sc4ccnc(N)c4Cl)c(N)n3)CC2)C1N on 885724-159-R-J1-PDC KRAS PDC multicell spheroid viability?
## Result 88.2
